system: HT-29; experiment: NCI tumour cell line growth inhibition, 48 h
The source made the active and inactive calls. No stated cut-off is given here; in the data, active = GI50 up to about 1.1 µM and inactive = higher.
Recorded measurements of GI50, one per entry

Molecule	GI50
O=[N+]([O-])c1ccc2occ3c2c1CCC3	> 100 µM (inactive)
CCOC(=O)C1NCCc2c1[nH]c1ccccc21 (centres undefined)	> 10 µM (inactive)
N/C(=N\O)N/N=C/c1cccc(F)c1	30.4 µM (inactive)
CCCCCCCC(=O)O[C@H]1[C@H]2[C@@H](CC1(C)C)C(=O)[C@]13O[C@H]1C(=O)[C@]1(CO1)[C@]23C	5.19 µM (inactive)
CC(=O)c1ccccc1NCC(=O)Nn1cnc2ccc(S(=O)(=O)Nc3ccccc3C(C)=O)cc2c1=O	> 100 µM (inactive)

Please look at the following molecule next.
Challenge: Recorded GI50 of COC(=O)C1=C(O)C(C(=O)OC)[C@@]2(O)[C@@H](C(=O)OC)[C@H](C)C[C@@H]1[C@@H]2C(=O)OC (some centres undefined) , please.
Response given: 27.6 µM (inactive)

Values compiled from ChEMBL document CHEMBL1201862.
